Attribution: ChEMBL document CHEMBL4038308

System: Enterococcus faecalis
Measurement Notes: Antibacterial activity against Enterococcus faecalis CCM 4224 after 24 hrs by microdilution method
Type: functional
Experimental Conditions: CCM 4224, 24 h
Reported Endpoint: log10(MIC) (log10 of the value in µg/mL)

INSERT INTO results (compound, reported_endpoint, recorded_number) VALUES
  ('CCCCCCCCCCCCCCCOP(=O)(CCN(CCN)CCN)OC[C@H]1O[C@@H](n2ccc(=O)[nH]c2=O)[C@H](O)[C@@H]1O (some centres undefined)', 'log10(MIC)', 1.10),
  ('CCCCCCCCCCCCCCCOP(=O)(CCN1CCC(N)C1)OC[C@H]1O[C@@H](n2ccc(=O)[nH]c2=O)[C@H](O)[C@@H]1O (some centres undefined)', 'log10(MIC)', 0.80),
  ('CCCCCCCCCCCCCCOP(=O)(CCN(CCCNC(=N)N)CCCNC(=N)N)OC[C@H]1O[C@@H](n2ccc(=O)[nH]c2=O)[C@H](O)[C@@H]1O (some centres undefined)', 'log10(MIC)', 1.10),
  ('CCCCCCCCCCCCCCCCOP(=O)(CCN(CCNC(=N)N)CCNC(=N)N)OC[C@H]1O[C@@H](n2ccc(=O)[nH]c2=O)[C@H](O)[C@@H]1O (some centres undefined)', 'log10(MIC)', 1.40),
  ('CCCCCCCCCCCCCCCOP(=O)(CCN(CCNC(=N)N)CCNC(=N)N)OC[C@H]1O[C@@H](n2ccc(=O)[nH]c2=O)[C@H](O)[C@@H]1O (some centres undefined)', 'log10(MIC)', 1.40),
  ('CCCCCCCCCCCCCCCOP(=O)(CCN(CCCN)CCCN)OC[C@H]1O[C@@H](n2ccc(=O)[nH]c2=O)[C@H](O)[C@@H]1O (some centres undefined)', 'log10(MIC)', 1.70),
  ('CCCCCCCCCCCCCCCCOP(=O)(CCN(CCCN)CCCN)OC[C@H]1O[C@@H](n2ccc(=O)[nH]c2=O)[C@H](O)[C@@H]1O (some centres undefined)', 'log10(MIC)', 1.70),
  ('CCCCCCCCCCCCOP(=O)(CCN(CCCN)CCCN)OC[C@H]1O[C@@H](n2ccc(=O)[nH]c2=O)[C@H](O)[C@@H]1O (some centres undefined)', 'log10(MIC)', 2.00),
  ('CCCCCCCCCCCCCCOP(=O)(CCN1CCC(N)C1)OC[C@H]1O[C@@H](n2ccc(=O)[nH]c2=O)[C@H](O)[C@@H]1O (some centres undefined)', 'log10(MIC)', 0.80),
  ('CCCCCCCCCCCCCOP(=O)(CCN(CCCNC(=N)N)CCCNC(=N)N)OC[C@H]1O[C@@H](n2ccc(=O)[nH]c2=O)[C@H](O)[C@@H]1O (some centres undefined)', 'log10(MIC)', 1.40),
  ('CCCCCCCCCCCCCCOP(=O)(CCN(CCCN)CCCN)OC[C@H]1O[C@@H](n2ccc(=O)[nH]c2=O)[C@H](O)[C@@H]1O (some centres undefined)', 'log10(MIC)', 1.40),
  ('CCCCCCCCCCCCCCOP(=O)(CCN(CCN)CCN)OC[C@H]1O[C@@H](n2ccc(=O)[nH]c2=O)[C@H](O)[C@@H]1O (some centres undefined)', 'log10(MIC)', 2.00),
  ('CCCCCCCCCCCCCOP(=O)(CCN(CCCN)CCCN)OC[C@H]1O[C@@H](n2ccc(=O)[nH]c2=O)[C@H](O)[C@@H]1O (some centres undefined)', 'log10(MIC)', 1.70),
  ('CCCCCCCCCCCCCCCOP(=O)(CCN(CCCNC(=N)N)CCCNC(=N)N)OC[C@H]1O[C@@H](n2ccc(=O)[nH]c2=O)[C@H](O)[C@@H]1O (some centres undefined)', 'log10(MIC)', 1.40);
